# Test Description: Blood and brain concentrations (rats), tail vein injection
# Assay type: in vivo, Long-Evans Hooded rats
# Condition Details: male, Long-Evans Hooded, rat, brain and plasma, intravenous, 3 mg/kg, Table 114, read-out: Brain/Plasma Ratio
Attribute Measured: Kp at 1 h
Answer field: number only, no words.

Worked examples follow.
# Compound, Kp at 1 h
rows = [
    ("[2H]C1([2H])NC[C@@]2(c3nc(C)no3)C[C@@H]12 [Compound 122a]", 0.59),
    ("Cc1noc([C@@]23CNC[C@@H]2C3)n1 [Compound 106a]", 0.39),
    ("Cc1noc([C@]23CNC[C@H]2C3)n1 [Compound 106b]", 0.6),
    ("[2H]C([2H])([2H])c1noc(C23CNC([2H])([2H])C2C3)n1 (centres unmarked)", 0.56),
    ("Cc1noc(C23CNCC2C3)n1 (racemic)", 0.38),
    ("[2H]C1([2H])NC([2H])([2H])C2(c3nc(C)no3)CC12 (centres unmarked)", 0.65),
    ("[2H]C1([2H])NCC2(c3nc(C)no3)CC12 (racemic)", 0.51),
]

Turning to the following compound.
## Task Entry [2H]C1([2H])NC[C@]2(c3nc(C)no3)C[C@H]12 [Compound 122b] has what Kp at 1 h?
## Result 0.58

----------
# System: anesthetized rats
# Test Description: Salivation after iontophoretic transdermal co-delivery of agonist and antagonist
# Format: in vivo, Long Evans Hooded rats
# Condition Details: anesthetized rat, one patch with 1 mg Compound 3 plus 0.01 mg antagonist
Attribute Measured: reduction of salivation caused by transdermal iontophoretic delivery of Compound 3

# Compound, Reported
data = [
    ("C[N+]1(C)CCC(OC(=O)C(O)(c2ccccc2)C2CCCC2)C1 (centres unmarked) [glycopyrrolate]", "greatly reduced"),
    ("CC(C)[N+](C)(CCOC(=O)C1c2ccccc2Oc2ccccc21)C(C)C", "greatly reduced"),
    ("C[N+]1(C)[C@@H]2C[C@@H](OC(=O)[C@H](CO)c3ccccc3)C[C@H]1[C@@H]1O[C@@H]12", "greatly reduced"),
]

----------
# Test Description: Blood and brain concentrations (rats), tail vein injection
# Assay type: in vivo, Long-Evans Hooded rats
# Condition Details: male, Long-Evans Hooded, rat, in vivo, 3 mg/kg, 3 mg/kg tail vein injection, read-out: Brain Concentration at 1 hr
Entries and their measured concentration at 1 h follow.

# Compound, concentration at 1 h
measured = [
    ("Cc1noc(C23CNCC2C3)n1 (racemic)", "4.4 µM"),
]

## Task Using the record for [2H]C([2H])([2H])c1noc(C23CNCC2C3)n1 (stereo not drawn) , report its concentration at 1 h.
## Result 5.5 µM

## Task Which concentration at 1 h reading was recorded for the compound [2H]C([2H])([2H])c1noc(C23CNC([2H])([2H])C2C3)n1 (stereo not drawn) ?
## Result 5.5 µM

## Task # query: concentration at 1 h of entry [2H]C1([2H])NCC2(c3nc(C)no3)CC12 (racemic)
## Result 8.6 µM

## Task What does the record list as concentration at 1 h for [2H]C1([2H])NC[C@]2(c3nc(C)no3)C[C@H]12 [Compound 122b] ?
## Result 5.1 µM

## Task Requested field: concentration at 1 h. Item: [2H]C1([2H])NC[C@@]2(c3nc(C)no3)C[C@@H]12 [Compound 122a]
## Result 5 µM

----------
# Test Description: Blood and brain concentrations (rats), tail vein injection
# Assay type: in vivo, Long-Evans Hooded rats
# Condition Details: male, Long-Evans Hooded, rat, plasma, iv, 3 mg/kg, 3 mg/kg tail vein injection, read-out: Plasma Terminal Half-life (converted)
Reported half-life values for a set of compounds
Reply numerically in min, unit not repeated.

Observe how each entry below is paired with its result.
# Compound, Unit Of Measurement, half-life
records = [
    ("Cc1noc([C@@]23CNC[C@@H]2C3)n1 [Compound 106a]", "min", 42),
    ("[2H]C1([2H])NC([2H])([2H])C2(c3nc(C)no3)CC12 (centres unmarked)", "min", 84),
]

## Task Look up half-life for this compound: [2H]C1([2H])NC[C@@]2(c3nc(C)no3)C[C@@H]12 [Compound 122a]
## Result 58.2

## Task Which measured half-life value corresponds to [2H]C1([2H])NCC2(c3nc(C)no3)CC12 (racemic) ?
## Result 75.6

## Task Entry Cc1noc(C23CNCC2C3)n1 (racemic) has what half-life?
## Result 66

## Task For the compound shown here, [2H]C([2H])([2H])c1noc(C23CNC([2H])([2H])C2C3)n1 (centres unmarked) , give the reported half-life.
## Result 69

## Task half-life lookup needed for Cc1noc([C@]23CNC[C@H]2C3)n1 [Compound 106b] , thanks.
## Result 66

## Task Any idea what its half-life is? The compound is [2H]C1([2H])NC[C@]2(c3nc(C)no3)C[C@H]12 [Compound 122b]
## Result 78

----------
# Tested on: pooled male human liver microsomes
# Test Description: Metabolism in human liver microsomes, Example 45
# Format: in vitro ADME
Attribute Measured: Loss at 6 hrs (%)

Example entries begin here.
# Compound, Target Entity, Attribute Measured, Reported
rows = [
    ("[2H]C([2H])([2H])c1noc(C23CNCC2C3)n1 (stereo not drawn)", "pooled male human liver microsomes", "Loss at 6 hrs (%)", "29%"),
    ("[2H]C1([2H])NC([2H])([2H])C2(c3nc(C)no3)CC12 (stereo not drawn)", "pooled male human liver microsomes", "Loss at 6 hrs (%)", "10%"),
]

Consider the record given below.
## Task Any idea what its Loss at 6 hrs (%) is? The compound is Cc1noc([C@]23CNC[C@H]2C3)n1 [Compound 106b]
## Result 29%

----------
This section presents compounds with their documented Papp at 24 h, 400 µM values.
# Test Description: in vitro
# Format: in vitro ADME
# Condition Details: PAMPA, pH 7.4, 400 μM, pH 7.4, 24 hours, room temperature; read-out: PAMPA Permeability Coefficient (×10^6)
Numbers only here, please. The scale is ×10⁻⁶ cm/s.

# Compound, Unit Of Measurement, Papp at 24 h, 400 µM
data = [
    ("[2H]C([2H])([2H])c1noc(C23CNCC2C3)n1 (stereo not drawn) [Compound 138]", "×10⁻⁶ cm/s", 4.1),
]

## Task Returns the measured Papp at 24 h, 400 µM for the input compound. Input: [2H]C1([2H])NC[C@@]2(c3nc(C)no3)C[C@@H]12 [Compound 122a]
## Result 3.93

## Task Can you share its Papp at 24 h, 400 µM? I mean this compound: Cc1noc([C@]23CNC[C@H]2C3)n1 [Compound 106b]
## Result 4.37

## Task Item under review: Cc1noc([C@@]23CNC[C@@H]2C3)n1 [Compound 106a] . Reported Papp at 24 h, 400 µM?
## Result 4.25

## Task I'd like to know its Papp at 24 h, 400 µM. The compound in question is [2H]C([2H])([2H])c1noc(C23CNC([2H])([2H])C2C3)n1 (stereo not drawn) [Compound 136]
## Result 3.71

## Task Please look up its Papp at 24 h, 400 µM: [2H]C1([2H])NCC2(c3nc(C)no3)CC12 (racemic) [Compound 121]
## Result 3.78

----------
// reported huM1/A9L Smax for each item listed
# Target Entity: human muscarinic M1 receptors (Homo sapiens)
# Construct: host or cells: A9L cells
# Sequence (P11229 1-460): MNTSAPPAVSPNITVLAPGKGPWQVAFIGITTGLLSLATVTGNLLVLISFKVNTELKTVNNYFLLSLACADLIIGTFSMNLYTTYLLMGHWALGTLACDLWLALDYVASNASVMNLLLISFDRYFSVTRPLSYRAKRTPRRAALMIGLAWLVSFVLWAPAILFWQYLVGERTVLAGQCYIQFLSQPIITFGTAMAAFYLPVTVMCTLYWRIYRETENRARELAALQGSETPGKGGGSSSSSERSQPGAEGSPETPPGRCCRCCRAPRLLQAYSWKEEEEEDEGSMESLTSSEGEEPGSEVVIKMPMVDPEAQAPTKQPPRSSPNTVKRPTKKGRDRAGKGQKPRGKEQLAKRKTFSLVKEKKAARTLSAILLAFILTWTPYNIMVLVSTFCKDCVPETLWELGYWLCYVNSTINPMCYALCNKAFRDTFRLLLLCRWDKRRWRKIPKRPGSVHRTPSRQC
# Format: cell-based
# Condition Details: percentage of maximal stimulation by carbachol
The figure you give is taken to be in %; do not add the unit.

// solved cases for huM1/A9L Smax follow
# Compound, Target Entity, Reported
data = [
    ("[2H]C1([2H])NC([2H])([2H])C2(c3nc(C)no3)CC12 (centres unmarked)", "human muscarinic M1 receptors (Homo sapiens)", 61),
    ("[2H]C1([2H])NC[C@@]2(c3nc(C)no3)C[C@@H]12 [Compound 122a]", "human muscarinic M1 receptors (Homo sapiens)", 77),
    ("Cc1noc(C23CNCC2C3)n1 (racemic)", "human muscarinic M1 receptors (Homo sapiens)", 58),
    ("[2H]C1([2H])NC[C@]2(c3nc(C)no3)C[C@H]12 [Compound 122b]", "human muscarinic M1 receptors (Homo sapiens)", 47),
    ("[2H]C([2H])([2H])c1noc(C23CNC([2H])([2H])C2C3)n1 (centres unmarked) [Compound 137]", "human muscarinic M1 receptors (Homo sapiens)", 97),
    ("Cc1noc([C@]23CNC[C@H]2C3)n1 [Compound 106b]", "human muscarinic M1 receptors (Homo sapiens)", 40),
]

## Task Give recorded huM1/A9L Smax with human muscarinic M1 receptors (Homo sapiens) for the following compound: [2H]C([2H])([2H])c1noc(C23CNCC2C3)n1 (centres unmarked)
## Result 93

## Task Which measured huM1/A9L Smax belongs to [2H]C1([2H])NCC2(c3nc(C)no3)CC12 (racemic) , tested on human muscarinic M1 receptors (Homo sapiens)?
## Result 73

## Task Form field: huM1/A9L Smax recorded for Cc1noc([C@@]23CNC[C@@H]2C3)n1 [Compound 106a] with human muscarinic M1 receptors (Homo sapiens) (enter value)
## Result 80

## Task Kindly state the measured huM1/A9L Smax obtained for [2H]C([2H])([2H])c1noc(C23CNC([2H])([2H])C2C3)n1 (centres unmarked) [Compound 135] with human muscarinic M1 receptors (Homo sapiens).
## Result 70

## Task What value of huM1/A9L Smax on human muscarinic M1 receptors (Homo sapiens) does [2H]C([2H])([2H])c1noc(C23CNC([2H])([2H])C2C3)n1 (centres unmarked) [Compound 136] have?
## Result 41
